assay: ATG_PPRE_CIS: Attagene CIS-FACTORIAL HepG2 Assay for human Peroxisome Proliferator-activated Response Element (PPRE) (AID 2282958); details: HepG2 PPRE cis-element reporter, Attagene transcription factor profiling; actives raise or lower the signal
The source made the active and inactive calls. Rule for the calls: active = hit-call score of the fitted dose curve at least 0.9, where 1 is the maximum; inactive = score below 0.9.
Outcomes: label 1 = active, label 0 = inactive

[[record]]
compound = "Cc1ccccc1CCO"
group_label = "label 0"

[[record]]
compound = "CCCCCCCCCCCCc1ccc(O)cc1"
group_label = "label 0"

[[record]]
compound = "Cc1noc(NS(=O)(=O)c2ccc(N)cc2)c1C"
group_label = "label 0"

[[record]]
compound = "NNS(=O)(=O)c1ccc(Oc2ccc(S(=O)(=O)NN)cc2)cc1"
group_label = "label 0"

[[record]]
compound = "CC(Cl)COP(=O)(OCC(C)Cl)OCC(C)Cl (stereo unspecified)"
group_label = "label 0"

[[record]]
compound = "O=C(O)CCCC(=O)O"
group_label = "label 0"

[[record]]
compound = "Nc1nc(N)nc(-c2ccccc2)n1"
group_label = "label 0"

[[record]]
compound = "CC1CC(=O)CC(C)(C)C1 (stereo unspecified)"
group_label = "label 0"

[[record]]
compound = "Cc1cc(C)c(C=O)c(C)c1"
group_label = "label 0"

[[record]]
compound = "O=C(Cl)c1ccc(C(=O)Cl)cc1"
group_label = "label 0"

[[record]]
compound = "CCN1CN(CC)CN(CC)C1"
group_label = "label 0"

[[record]]
compound = "CC(=O)OC1CCCCC1C(C)(C)C (stereo unspecified)"
group_label = "label 0"

[[record]]
compound = "CCCCC(CC)COC(=O)/C=C/c1ccc(OC)cc1 (stereo unspecified)"
group_label = "label 0"

[[record]]
compound = "CCCCCCC=O"
group_label = "label 1"

[[record]]
compound = "CC(C)(C)NC(=O)[C@H]1CC[C@H]2[C@@H]3CC[C@H]4NC(=O)C=C[C@]4(C)[C@H]3CC[C@]12C"
group_label = "label 0"

[[record]]
compound = "CC1CCC(C(C)(C)S)C(=O)C1 (stereo unspecified)"
group_label = "label 0"


----------
assay: ATG_CMV_CIS: Attagene CIS-FACTORIAL HepG2 Assay for human CMV (Internal Marker) (AID 2282928); conditions: HepG2 CMV promoter reporter, transcription factor profiling; actives raise or lower the signal;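 note: endpoint acts as a background internal control marker rather than a target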
Active and inactive are the calls of the source. How the source made its calls: active means hit-call score of the fitted dose curve at least 0.9, where 1 is the maximum; inactive means score below 0.9.
Outcomes: active, inactive

[[record]]
molecule = "CC(C)COC(=O)CC(C(=O)OCC(C)C)S(=O)(=O)O (centres undefined)"
group_label = "inactive"

[[record]]
molecule = "C=CCCCCCCCCOC(C)=O"
group_label = "inactive"

[[record]]
molecule = "CCCC(CC)c1ccccc1 (centres undefined)"
group_label = "active"

[[record]]
molecule = "O=C(O)c1ccc2c(c1)C(=O)OC2=O"
group_label = "inactive"


----------
Biological target: CCAAT/enhancer-binding protein beta (Homo sapiens)
Assay: ATG_C_EBP_CIS: Attagene CIS-FACTORIAL HepG2 Assay for human CCAAT/Enhancer Binding Protein (C/EBP) beta (AID 2282927)
Conditions: HepG2 Attagene cis-factorial transcription factor reporter; actives raise or lower the signal
Method: ATG_CIS is a cell-based, multiplexed-readout assay that uses HepG2, a human liver cell line, with measurements taken at 24 hours after chemical dosing in a 24-well plate.ATG_C_EBP_CIS is one of 52 assay component(s) measured or calculated from the ATG_CIS assay. […] This assay endpoint, ATG_C_EBP_CIS, was analyzed with bidirectional fitting relative to DMSO as the negative control and baseline of activity. […]
Activity calls are given as the source filed them. The calls were made as follows: active = hit-call score of the fitted dose curve at least 0.9, where 1 is the maximum; inactive = score below 0.9.
Outcomes: active, inactive

[[record]]
compound = "Oc1c(Cl)cc(Cl)c(Cl)c1Cl"
system_under_test = "CCAAT/enhancer-binding protein beta (Homo sapiens)"
group_label = "inactive"

[[record]]
compound = "Oc1ccccc1Cc1ccccc1O"
system_under_test = "CCAAT/enhancer-binding protein beta (Homo sapiens)"
group_label = "inactive"

[[record]]
compound = "C/C=C/C=C/CCCCCCCO"
system_under_test = "CCAAT/enhancer-binding protein beta (Homo sapiens)"
group_label = "inactive"

[[record]]
compound = "COC(=O)c1ccc(C(=O)OC)c(C(=O)OC)c1"
system_under_test = "CCAAT/enhancer-binding protein beta (Homo sapiens)"
group_label = "inactive"

[[record]]
compound = "CC1=CC(C)C(C=O)CC1 (configuration not stated)"
system_under_test = "CCAAT/enhancer-binding protein beta (Homo sapiens)"
group_label = "inactive"

[[record]]
compound = "COc1ccc(-c2coc3cc(O)cc(O)c3c2=O)cc1"
system_under_test = "CCAAT/enhancer-binding protein beta (Homo sapiens)"
group_label = "inactive"

[[record]]
compound = "CCCC/C=C/C=C\\C=O"
system_under_test = "CCAAT/enhancer-binding protein beta (Homo sapiens)"
group_label = "inactive"

[[record]]
compound = "O=C(OCCc1ccccc1)c1ccccc1"
system_under_test = "CCAAT/enhancer-binding protein beta (Homo sapiens)"
group_label = "inactive"

[[record]]
compound = "CC1=CCC(C(C)C)C=C1 (configuration not stated)"
system_under_test = "CCAAT/enhancer-binding protein beta (Homo sapiens)"
group_label = "inactive"

[[record]]
compound = "CC(C)(C)NC(=O)[C@H]1CC[C@H]2[C@@H]3CC[C@H]4NC(=O)C=C[C@]4(C)[C@H]3CC[C@]12C"
system_under_test = "CCAAT/enhancer-binding protein beta (Homo sapiens)"
group_label = "inactive"

[[record]]
compound = "Cc1c[nH]c(=O)[nH]c1=O"
system_under_test = "CCAAT/enhancer-binding protein beta (Homo sapiens)"
group_label = "inactive"

[[record]]
compound = "O=S(=O)(O)c1ccc(N=Nc2c(O)ccc3ccccc23)cc1"
system_under_test = "CCAAT/enhancer-binding protein beta (Homo sapiens)"
group_label = "inactive"

[[record]]
compound = "CCc1cccc(CC)c1"
system_under_test = "CCAAT/enhancer-binding protein beta (Homo sapiens)"
group_label = "inactive"

[[record]]
compound = "CC(=O)OCc1ccccc1"
system_under_test = "CCAAT/enhancer-binding protein beta (Homo sapiens)"
group_label = "inactive"

[[record]]
compound = "Oc1ccc(-c2ccccc2)c(Cl)c1"
system_under_test = "CCAAT/enhancer-binding protein beta (Homo sapiens)"
group_label = "inactive"

[[record]]
compound = "CC(C)(O)Cc1ccccc1"
system_under_test = "CCAAT/enhancer-binding protein beta (Homo sapiens)"
group_label = "inactive"

[[record]]
compound = "CCCCCCCCCC[N+](C)(CCCCCCCCCC)CCC[Si](OC)(OC)OC"
system_under_test = "CCAAT/enhancer-binding protein beta (Homo sapiens)"
group_label = "active"

[[record]]
compound = "Cc1ccc(S(=O)(=O)N=C=O)cc1"
system_under_test = "CCAAT/enhancer-binding protein beta (Homo sapiens)"
group_label = "inactive"

[[record]]
compound = "CCN(CC)c1cccc(C)c1"
system_under_test = "CCAAT/enhancer-binding protein beta (Homo sapiens)"
group_label = "inactive"

[[record]]
compound = "C1CNCCN1"
system_under_test = "CCAAT/enhancer-binding protein beta (Homo sapiens)"
group_label = "inactive"

[[record]]
compound = "C=CCCCCCCCCO"
system_under_test = "CCAAT/enhancer-binding protein beta (Homo sapiens)"
group_label = "inactive"

[[record]]
compound = "O=C(Nc1ccccc1)c1cc(Cl)ccc1O"
system_under_test = "CCAAT/enhancer-binding protein beta (Homo sapiens)"
group_label = "active"


----------
target: Nuclear receptor subfamily 4 group A member 2 (Homo sapiens); assay: ATG_NURR1_TRANS: Attagene TRANS-FACTORIAL HepG2 Assay for human Nuclear Receptor Related Protein 1 (NURR1) (AID 2282985); conditions: HepG2 Attagene TRANS reporter, mRNA readout
Results filed as inconclusive are left out. Calls of active or inactive are those of the source. Rule for the calls: active = hit-call score of the fitted dose curve at least 0.9, where 1 is the maximum; inconclusive = response in the unintended direction; inactive = score below 0.9.
Outcomes: active, inactive

[[record]]
compound = "CC1=CP(=O)(c2ccccc2)CC1 (centres undefined)"
group_label = "inactive"

[[record]]
compound = "Cc1ccc2c(c1)CCCN2"
group_label = "inactive"

[[record]]
compound = "Cc1noc(NS(=O)(=O)c2ccc(N)cc2)c1C"
group_label = "inactive"

[[record]]
compound = "CCOC(=O)[C@H](O)[C@@H](O)C(=O)OCC"
group_label = "inactive"

[[record]]
compound = "C/C=C/C=C/CCCCCCCO"
group_label = "inactive"

[[record]]
compound = "CCCCOC(=O)C(C)CC (centres undefined)"
group_label = "inactive"

[[record]]
compound = "CC(CCC(=O)O)(c1ccc(O)cc1)c1ccc(O)cc1"
group_label = "inactive"

[[record]]
compound = "CCCCCCCCCCCCc1ccc(O)cc1"
group_label = "inactive"

[[record]]
compound = "COC(OC)(C(=O)c1ccccc1)c1ccccc1"
group_label = "inactive"

[[record]]
compound = "NNS(=O)(=O)c1ccc(Oc2ccc(S(=O)(=O)NN)cc2)cc1"
group_label = "inactive"

[[record]]
compound = "CC1=NN(c2ccc(S(=O)(=O)O)cc2)C(=O)C1N=Nc1ccccc1 (centres undefined)"
group_label = "inactive"

[[record]]
compound = "CCCCCCCCCCCC(=O)OCC"
group_label = "inactive"

[[record]]
compound = "c1ccc2c(c1)[nH]c1ccccc12"
group_label = "inactive"

[[record]]
compound = "O=C(O)CCC(=O)O"
group_label = "inactive"

[[record]]
compound = "c1ccc2sc(SSN3CCOCC3)nc2c1"
group_label = "inactive"

[[record]]
compound = "CC=C(C)C(C)=O"
group_label = "active"

[[record]]
compound = "Cc1c(O)cccc1O"
group_label = "inactive"

[[record]]
compound = "Nc1nc(N)nc(-c2ccccc2)n1"
group_label = "inactive"

[[record]]
compound = "CCOc1ccc(NC(N)=O)cc1"
group_label = "inactive"

[[record]]
compound = "CCOC(=O)OC(=O)OCC"
group_label = "inactive"

[[record]]
compound = "C=C(C)OC(C)=O"
group_label = "inactive"

[[record]]
compound = "COc1ccc(C(=O)c2ccccc2)c(O)c1"
group_label = "inactive"

[[record]]
compound = "CC(=O)CCC1=C(C)CCCC1(C)C"
group_label = "inactive"

[[record]]
compound = "COC(Cc1ccccc1)OC"
group_label = "inactive"

[[record]]
compound = "CCc1cccc(C)c1N"
group_label = "inactive"

[[record]]
compound = "Cn1ccnc1"
group_label = "inactive"

[[record]]
compound = "CCCCCCCCCC(C)=O"
group_label = "inactive"

[[record]]
compound = "CCCCC(=O)O"
group_label = "inactive"

[[record]]
compound = "O=C(O)c1cc(O)c2ccccc2c1O"
group_label = "active"

[[record]]
compound = "c1ccc(-c2nc3ccccc3[nH]2)cc1"
group_label = "inactive"

[[record]]
compound = "CC1(C)[C@@H]2CC[C@@]1(C)C(=O)C2"
group_label = "inactive"

[[record]]
compound = "CN(C)c1ccc2nc3ccc(=[N+](C)C)cc-3sc2c1"
group_label = "inactive"

[[record]]
compound = "CCOC(=O)c1ccc(C)cc1"
group_label = "inactive"

[[record]]
compound = "CCCSSCCC"
group_label = "inactive"

[[record]]
compound = "CC12CCC(CC1)C(C)(C)O2"
group_label = "inactive"

[[record]]
compound = "CCN1CN(CC)CN(CC)C1"
group_label = "inactive"

[[record]]
compound = "O=C(Cl)c1ccc(C(=O)Cl)cc1"
group_label = "inactive"

[[record]]
compound = "CC(C)CCOCc1ccccc1"
group_label = "inactive"

[[record]]
compound = "CC(Cl)COP(=O)(OCC(C)Cl)OCC(C)Cl (centres undefined)"
group_label = "inactive"

[[record]]
compound = "CCOC(=O)/C=C\\C(=O)OCC"
group_label = "inactive"

[[record]]
compound = "O=C(O)CCCC(=O)O"
group_label = "inactive"

[[record]]
compound = "C=CC(=O)O[C@H]1C[C@@H]2CC[C@@]1(C)C2(C)C"
group_label = "inactive"

[[record]]
compound = "O=C1CCCCCCCCCCC1"
group_label = "inactive"

[[record]]
compound = "COC(=O)c1ccc(C(=O)OC)c(C(=O)OC)c1"
group_label = "inactive"

[[record]]
compound = "O=C(C=Cc1ccccc1)OCCc1ccccc1"
group_label = "inactive"

[[record]]
compound = "CCCCC1CCC(=O)O1 (centres undefined)"
group_label = "inactive"

[[record]]
compound = "COC(=O)c1ccccc1C"
group_label = "inactive"

[[record]]
compound = "C=CCCCCCCCCOC(C)=O"
group_label = "inactive"

[[record]]
compound = "CC(C)(CO)C(O)C(=O)NCCCO (centres undefined)"
group_label = "inactive"

[[record]]
compound = "Clc1cc(Cl)c(Cl)c(Cl)c1Cl"
group_label = "inactive"

[[record]]
compound = "C=CC(=O)NCOCCCC"
group_label = "inactive"

[[record]]
compound = "CC(C)=CCl"
group_label = "inactive"

[[record]]
compound = "N#Cc1ccc(C2CCCc3cncn32)cc1 (centres undefined)"
group_label = "inactive"

[[record]]
compound = "CCN(CC)c1cccc(C)c1"
group_label = "inactive"

[[record]]
compound = "O=C(O)c1ccc2c(c1)C(=O)OC2=O"
group_label = "inactive"

[[record]]
compound = "CCCCOCC(C)O (centres undefined)"
group_label = "inactive"

[[record]]
compound = "CCCCCC[C@@H](O)C/C=C\\CCCCCCCC(=O)OCC(O)CO (some centres undefined)"
group_label = "active"

[[record]]
compound = "C[N+](C)(C)CCCNS(=O)(=O)C(F)(F)C(F)(F)C(F)(F)C(F)(F)C(F)(F)C(F)(F)C(F)(F)C(F)(F)F"
group_label = "inactive"

[[record]]
compound = "CCCCOCCOC(=O)COc1ccc(Cl)cc1Cl"
group_label = "inactive"

